# tgt: GDP-loaded KRAS G12D (Homo sapiens (Human), UniProt P01116, G12D)
# Sequence (P01116-2 other isoform, or with tags, fused parts or gaps G12D): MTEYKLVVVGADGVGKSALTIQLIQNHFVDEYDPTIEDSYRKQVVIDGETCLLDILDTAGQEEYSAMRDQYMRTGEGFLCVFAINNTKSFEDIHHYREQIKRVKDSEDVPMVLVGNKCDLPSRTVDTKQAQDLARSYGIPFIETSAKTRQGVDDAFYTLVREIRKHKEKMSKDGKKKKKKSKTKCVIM
# test: KRAS G12D (GDP) biochemical assay (TR-FRET probe displacement)
# experimentalConditions: 2 hours
Known pIC50 of a selection of molecules
Scale explanation: pIC50 corresponds to minus log10 of a concentration expressed in moles per litre.

Would you please look over these solved cases?
C#Cc1c(F)ccc2cccc(-c3nc4c5c(nc(OC[C@@]67CCCN6[C@H](COC(C6CC6)C(F)(F)F)CC7)nc5c3F)N3C[C@H]5CC[C@H](N5)[C@H]3CC4)c12 (some centres unmarked) [Example 111]: 9.15
C#Cc1c(F)ccc2cccc(-c3nc4c5c(nc(OC[C@@]67CCCN6[C@H](COc6cc(C(F)(F)F)ncn6)CC7)nc5c3F)N3C[C@H]5CC[C@H](N5)[C@H]3CC4)c12 [Example 152]: 10.00
C#Cc1c(F)ccc2cccc(-c3nc4c5c(nc(OCC6(CN7CCC8(CC7)CC8(F)F)CC6)nc5c3F)N3C[C@H]5CC[C@H](N5)[C@@H]3[C@@H](C)C4)c12 [Example 136]: 7.77

Consider now this further molecule.
// query Dear colleague, please send me the reported pIC50 for C#Cc1c(F)ccc2cc(O)cc(-c3nc4c5c(nc(OC[C@@]67CCCN6[C@H](COC(C)(C(F)(F)F)C(F)(F)F)CC7)nc5c3F)N3C[C@H]5CC[C@H](N5)[C@H]3CC4)c12 [Example 109] when you can.
// result 10.00
